- Tested target: Transient receptor potential cation channel subfamily V member 1 (Homo sapiens)
- Sequence (Q8NER1 whole entry): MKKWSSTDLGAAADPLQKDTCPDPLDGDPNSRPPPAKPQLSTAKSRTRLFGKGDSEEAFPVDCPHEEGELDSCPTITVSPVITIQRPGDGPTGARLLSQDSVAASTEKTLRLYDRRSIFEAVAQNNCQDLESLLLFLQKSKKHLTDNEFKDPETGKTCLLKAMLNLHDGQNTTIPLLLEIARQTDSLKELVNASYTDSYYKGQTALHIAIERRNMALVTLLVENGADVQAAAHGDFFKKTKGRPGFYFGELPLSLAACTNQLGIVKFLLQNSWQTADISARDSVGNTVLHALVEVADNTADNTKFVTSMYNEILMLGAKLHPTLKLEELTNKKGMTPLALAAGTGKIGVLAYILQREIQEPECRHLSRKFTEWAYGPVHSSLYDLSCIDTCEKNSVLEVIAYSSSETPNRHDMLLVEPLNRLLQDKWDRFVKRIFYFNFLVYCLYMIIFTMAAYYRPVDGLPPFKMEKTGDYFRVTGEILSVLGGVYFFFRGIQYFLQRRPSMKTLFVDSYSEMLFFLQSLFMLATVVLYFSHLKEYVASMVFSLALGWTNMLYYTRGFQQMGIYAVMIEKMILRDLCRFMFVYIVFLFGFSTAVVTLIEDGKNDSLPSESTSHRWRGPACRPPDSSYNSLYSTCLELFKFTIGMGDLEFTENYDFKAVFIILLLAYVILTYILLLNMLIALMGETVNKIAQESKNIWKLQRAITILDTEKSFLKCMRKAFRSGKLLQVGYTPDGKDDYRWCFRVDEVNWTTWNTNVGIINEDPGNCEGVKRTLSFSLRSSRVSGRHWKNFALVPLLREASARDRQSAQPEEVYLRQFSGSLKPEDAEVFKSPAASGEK
- Test name: Agonist activity at human TRPV1 receptor expressed in HEK293 cells assessed as intracellular calcium stimulation relative to inomycin
- Format: functional, cell-based
So basically, if Efficacy comes in under 40% it's rule met, and if it's 40% or more it's rule not met.

Incoming: In plain terms, does COc1ccc(OC(=O)N[C@@H]2C[C@H](C)CC[C@H]2C(C)C)cc1 come in under 40% for Efficacy?
Outgoing: rule not met

Incoming: In plain terms, does Cc1ccc(C(=O)N[C@@H]2C[C@H](C)CC[C@H]2C(C)C)cc1 come in under 40% for Efficacy?
Outgoing: rule met

Incoming: In plain terms, does CC(C)[C@@H]1CC[C@@H](C)C[C@H]1NC(=O)Oc1cccc(-c2ccccc2)c1 come in under 40% for Efficacy?
Outgoing: rule not met

Incoming: In plain terms, does CC(C)[C@@H]1CC[C@@H](C)C[C@H]1NC(=O)c1ccc(Cl)cc1 come in under 40% for Efficacy?
Outgoing: rule not met

Incoming: In plain terms, does CC(C)[C@@H]1CC[C@@H](C)C[C@H]1NC(=O)c1ccc(C(C)(C)C)cc1 come in under 40% for Efficacy?
Outgoing: rule met

Incoming: In plain terms, does CC(C)[C@@H]1CC[C@@H](C)C[C@H]1NC(=O)CCCCCCCc1ccccc1 come in under 40% for Efficacy?
Outgoing: rule met

Incoming: In plain terms, does CC(C)[C@@H]1CC[C@@H](C)C[C@H]1NC(=O)Oc1ccc(C(C)(C)C)cc1 come in under 40% for Efficacy?
Outgoing: rule met

Incoming: In plain terms, does CC(C)[C@@H]1CC[C@@H](C)C[C@H]1NC(=O)c1cccc(Cl)c1 come in under 40% for Efficacy?
Outgoing: rule not met

Incoming: In plain terms, does CC(C)[C@@H]1CC[C@@H](C)C[C@H]1NC(=O)NC12CC3CC(CC(C3)C1)C2 come in under 40% for Efficacy?
Outgoing: rule met

Incoming: In plain terms, does CC(C)[C@@H]1CC[C@@H](C)C[C@H]1NC(=O)Oc1cccc(C(F)(F)F)c1 come in under 40% for Efficacy?
Outgoing: rule met
